Here's a roundup of pIC50 values tested on Cytochrome P450 2D6 (Homo sapiens, UniProt P10635), taken from various published works.
pIC50: −log10 of the molar value.

Example molecules with recorded pIC50:
1. Cc1cc(Nc2ncc(Cl)c(Nc3cn(C)nc3S(=O)(=O)C(C)C)n2)c(OC2CC2)cc1C1CCC(N2CCN(C)CC2)CC1 (stereo not drawn) | < 5.00
2. C[C@@H]1SC(N)=N[C@](C)(c2cc(NC(=O)c3ccc(C#N)cn3)ccc2F)[C@@H]1F | ≤ 4.70

Consider the molecule CCCCOCCOc1ccc(-c2ccc3c(c2)/C=C(/C(=O)Nc2ccc([S@+]([O-])Cc4c(C)ncn4CC)cc2)CCCN3CC2CCOCC2)cc1 tested on Cytochrome P450 2D6 (Homo sapiens, UniProt P10635); state its pIC50.
< 4.30

Consider the molecule C[C@]1(c2cc(NC(=O)c3ncc(C#N)cc3Cl)ccc2F)N=C(N)OCC1(F)F tested on Cytochrome P450 2D6 (Homo sapiens, UniProt P10635); state its pIC50.
< 5.00

Consider the molecule CC(C)(C#N)c1c(F)cc(CCC2(C3CCCC3)CC(O)=C(Cc3nc4ncc(Cl)cn4n3)C(=O)O2)cc1F (racemic) tested on Cytochrome P450 2D6 (Homo sapiens, UniProt P10635); state its pIC50.
≥ 7.13

Consider the molecule C[C@@H](c1ccccc1-c1ccc(F)cc1)n1cncc1C(=O)N1CCC(N2CC[C@H](O)[C@@H](F)C2)CC1 tested on Cytochrome P450 2D6 (Homo sapiens, UniProt P10635); state its pIC50.
< 5.00

Consider the molecule COc1cncc(Nc2ccc(C(=O)c3c[nH]c4ncnc(NC5CCCCC5)c34)c(F)n2)c1 tested on Cytochrome P450 2D6 (Homo sapiens, UniProt P10635); state its pIC50.
< 5.00

Consider the molecule Cc1cnc2nc(CC3=C(O)CC(CCc4ccc(C(C)(C)C#N)c(F)c4)(C4CCCC4)OC3=O)nn2c1 (racemic) tested on Cytochrome P450 2D6 (Homo sapiens, UniProt P10635); state its pIC50.
> 7.13

Consider the molecule CC(C)CS(=O)(=O)c1nn(C)cc1Nc1nc(Nc2ccc(C3CCN(C)CC3)cc2OC2CC2)ncc1Cl tested on Cytochrome P450 2D6 (Homo sapiens, UniProt P10635); state its pIC50.
< 5.00

Consider the molecule CC(C)(C)c1ccc(NC(=O)c2cccnc2NCc2ccnc3[nH]ccc23)cc1 tested on Cytochrome P450 2D6 (Homo sapiens, UniProt P10635); state its pIC50.
< 4.70

Consider the molecule COCCOc1cc(CC2CCN(CCc3ccc4c(c3)C(=O)CCC4)CC2)ccc1C tested on Cytochrome P450 2D6 (Homo sapiens, UniProt P10635); state its pIC50.
4.47

Consider the molecule C[C@@H](c1ccccc1-c1ccc(F)cc1)n1cncc1C(=O)N1CCC2NC(=O)CO[C@@H]2C1 (mixture of isomers) tested on Cytochrome P450 2D6 (Homo sapiens, UniProt P10635); state its pIC50.
5.09

Consider the molecule CN1CCc2cc(N3CCn4nc(NC(=O)c5cc(O)no5)cc43)ccc2C1=O tested on Cytochrome P450 2D6 (Homo sapiens, UniProt P10635); state its pIC50.
< 4.70

Consider the molecule CN1CCc2cc(N3CCn4nc(NC(=O)c5cccnc5)cc43)ccc2C1=O tested on Cytochrome P450 2D6 (Homo sapiens, UniProt P10635); state its pIC50.
< 4.70

Consider the molecule N#Cc1ccc(C(=O)Nc2ccc(F)c(C34COCC3COC(N)=N4)c2)nc1 (racemic) tested on Cytochrome P450 2D6 (Homo sapiens, UniProt P10635); state its pIC50.
< 4.70
